# System name: T1, mFc tagged human LAG3 ECD recombinant protein (human, UniProt P18627 23-450)
# T1 construct: extracellular domain; purchased from Biointron; not shown: mouse IgG Fc (mFc) tag
# T1 sequence (looked up): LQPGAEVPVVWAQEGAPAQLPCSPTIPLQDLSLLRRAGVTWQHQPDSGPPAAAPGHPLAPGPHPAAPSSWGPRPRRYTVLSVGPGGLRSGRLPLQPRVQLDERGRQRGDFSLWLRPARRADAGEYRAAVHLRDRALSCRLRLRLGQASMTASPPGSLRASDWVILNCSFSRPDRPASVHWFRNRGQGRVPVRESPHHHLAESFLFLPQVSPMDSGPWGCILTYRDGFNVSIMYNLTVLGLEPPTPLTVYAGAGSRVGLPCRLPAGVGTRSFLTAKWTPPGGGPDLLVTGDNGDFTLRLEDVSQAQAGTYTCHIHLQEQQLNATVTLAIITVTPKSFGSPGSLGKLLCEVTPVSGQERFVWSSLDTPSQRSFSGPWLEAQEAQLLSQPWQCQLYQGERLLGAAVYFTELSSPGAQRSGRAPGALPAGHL
# Procedure summary: competitive FACS: mFc-LAG3 ECD binding to Raji cells (MHC II)
Measured property: TOP blocking (%)
Write down the numeric answer in % and omit the unit.

Before answering, review these 2 worked examples.
Query string: I would be grateful if you could share the reported TOP blocking (%) for 023c (antibody, human IgG4, V domains shown, human IgG4 S228P / kappa chimeric antibody; also called chimeric antibody 023; ES005-023c; not shown: human kappa light chain constant region (pcDNA3.4-hIgGk vector)) VH: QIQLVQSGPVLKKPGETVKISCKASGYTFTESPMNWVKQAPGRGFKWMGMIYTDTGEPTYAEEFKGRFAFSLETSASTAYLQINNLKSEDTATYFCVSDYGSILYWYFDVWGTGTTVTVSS VL: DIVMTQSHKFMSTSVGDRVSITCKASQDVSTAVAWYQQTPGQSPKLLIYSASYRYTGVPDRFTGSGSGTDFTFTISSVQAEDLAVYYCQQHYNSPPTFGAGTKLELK .
Result string: 99.2

Query string: I would be grateful if you could share the reported TOP blocking (%) for hu023.13 (antibody, human IgG4, V domains shown, humanized from 023c) VH: QIQLVQSGPELKKPGASVKISCKASGYTFTESPMNWVRQAPGQGFEWMGIIYTDTGEPTYAEEFKGRFVFSLDTSVSTAYLQISSLKAEDTAVYFCVSDYGSILYWYFDVWGQGTLVTVSS VL: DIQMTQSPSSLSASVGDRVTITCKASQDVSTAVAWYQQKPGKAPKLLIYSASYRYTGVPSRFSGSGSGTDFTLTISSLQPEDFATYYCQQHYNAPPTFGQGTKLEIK .
Result string: 99.3

Moving on to the next binder.
Query string: I would be grateful if you could share the reported TOP blocking (%) for hu023.07 (antibody, human IgG4, V domains shown, humanized from 023c) VH: QVQLVQSGPEVKKPGASVKVSCKASGYTFTESPMNWVRQAPGQGFEWMGIIYTDTGEPTYAEEFKGRVTMTLDTSTSTVYMELSSLRSEDTAVYFCASDYGSILYWYFDVWGQGTLVTVSS VL: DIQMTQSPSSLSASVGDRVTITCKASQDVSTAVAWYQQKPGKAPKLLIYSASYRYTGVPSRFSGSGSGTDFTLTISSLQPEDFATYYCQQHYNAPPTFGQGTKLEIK .
Result string: 99.2
